experimental.protocol: Measurement of dynamic hydration number (relaxation time T1)
Assay type: physicochemical
run.parameters: at 25° C., in water
parameter: Dynamic hydration number (nDHN)

# compound NCCCC[C@H](N)C(=O)O [Lysine] ; its Dynamic hydration number (nDHN) = 3.0

Kindly note the recorded Dynamic hydration number (nDHN) for CC(C)[C@H](N)C(=O)O [Valine] , which is 21.0

Documented Dynamic hydration number (nDHN) of OC[C@H]1O[C@@](CO)(O[C@H]2O[C@H](CO)[C@@H](O)[C@H](O)[C@H]2O)[C@@H](O)[C@@H]1O [Sucrose] : 15.0

The compound listed as O=C[C@H](O)[C@@H](O)[C@H](O)CO [Xylose] has a reported Dynamic hydration number (nDHN) of 15.5

Summary for this compound, O=C(CO)[C@@H](O)[C@H](O)[C@H](O)CO [Fructose] : Dynamic hydration number (nDHN) is 16.5
